Where do the numbers come from? From paper PMC7587356.

- tgt: UniProt:P0DTD1
- experiment-summary: biochemical
- Type: biochemical
- Set-up: unit not given here
- condition-details: sheet LOPAC_screen_w_protease; LOPAC1280 primary screen with protease, 5 µM compound; mean of the two replicates
Hi there, I'd appreciate the recorded mean for every entry that follows.
Answers are plain numbers.

Known mean results, listed for orientation:
COCc1nc2c([nH]1)c(=O)n(C)c(=O)n2CC(C)C    5.36
Clc1ccc(N2C[C@H]3CC[C@@H](C2)N3)nn1 [DBO-83]    6.059
CNCCc1c[nH]c2ccc(O)cc12.O=C(O)C(=O)O    5.527
C[C@@H]1O[C@H](C[N+](C)(C)C)C[C@H]1O.[Cl-] (racemic) [(±)-Muscarine chloride]    5.0033

For the next question, use this compound.
Briefly, mean measured for CSc1nc(N)c2ncn([C@@H]3O[C@H](COP(=O)(O)OP(=O)(O)O)[C@@H](O)[C@H]3O)c2n1.[Na].[Na].[Na] : 4.674
